Reference source for all entries: the NIST ThermoML archive (doi:10.1016/j.jct.2011.01.016)

A collection of compounds and their measured mass density
study conditions: 308.15 K; 101.33 kPa; Liquid; Vibrating tube method
± gives the expanded uncertainty stated by the source.

// known answers, use as guide
compound	mass density
CCCCCCCCCCCCCC[P+](CCCCCC)(CCCCCC)CCCCCC.[Br-] [tetradecyltrihexylphosphonium bromide]	949 ± 1 kg/m3
CCCCCCCCCCCCCC[P+](CCCCCC)(CCCCCC)CCCCCC.N#C[N-]C#N [tetradecyl(trihexyl)phosphonium dicyanamide]	893.3 ± 1 kg/m3
CCCCCCCCCC(=O)[O-].CCCCCCCCCCCCCC[P+](CCCCCC)(CCCCCC)CCCCCC [trihexyltetradecylphosphonium decanoate]	874.4 ± 1 kg/m3
CCCCCCCCCCCCCC[P+](CCCCCC)(CCCCCC)CCCCCC.O=S(=O)([N-]S(=O)(=O)C(F)(F)F)C(F)(F)F	1058.8 ± 1 kg/m3
CCCCCCCCCCCCCC[P+](CCCCCC)(CCCCCC)CCCCCC.[Cl-] [trihexyl(tetradecyl)phosphonium chloride]	884 ± 1 kg/m3
CCCCCCCCCCCCCC[P+](CCCCCC)(CCCCCC)CCCCCC.CS(=O)(=O)[O-] [trihexyltetradecylphosphonium methanesulfonate]	922 ± 1 kg/m3

Q: Field request: mass density | item: "CC(CC(C)(C)C)CP(=O)([O-])CC(C)CC(C)(C)C.CCCCCCCCCCCCCC[P+](CCCCCC)(CCCCCC)CCCCCC"
A: 879.3 ± 1 kg/m3

---

study conditions: 353.15 K; 101.33 kPa; Liquid; Vibrating tube method
Returns true if the recorded mass density is greater than or equal to 900 kg/m3, and false otherwise.

Here's what some known entries look like.
molecule	class name
CC(CC(C)(C)C)CP(=O)([O-])CC(C)CC(C)(C)C.CCCCCCCCCCCCCC[P+](CCCCCC)(CCCCCC)CCCCCC	false
CCCCCCCCCCCCCC[P+](CCCCCC)(CCCCCC)CCCCCC.O=S(=O)([N-]S(=O)(=O)C(F)(F)F)C(F)(F)F	true
CCCCCCCCCCCCCC[P+](CCCCCC)(CCCCCC)CCCCCC.N#C[N-]C#N [tetradecyl(trihexyl)phosphonium dicyanamide]	false
CCCCCCCCCCCCCC[P+](CCCCCC)(CCCCCC)CCCCCC.[Cl-] [trihexyl(tetradecyl)phosphonium chloride]	false

Turning to the following molecule.
Q: Entry CCCCCCCCCC(=O)[O-].CCCCCCCCCCCCCC[P+](CCCCCC)(CCCCCC)CCCCCC [trihexyltetradecylphosphonium decanoate] : is its mass density no less than 900 kg/m3?
A: false

---

study conditions: 338.15 K; 101.33 kPa; Liquid; Vibrating tube method
reported metric: mass density (kg/m3)
API: value field is a number in kg/m3; no unit string.

molecule	mass density [kg/m3]
CCCCCCCCCCCCCC[P+](CCCCCC)(CCCCCC)CCCCCC.O=S(=O)([N-]S(=O)(=O)C(F)(F)F)C(F)(F)F	1037.3

Q: Field request: mass density | item: CCCCCCCCCC(=O)[O-].CCCCCCCCCCCCCC[P+](CCCCCC)(CCCCCC)CCCCCC [trihexyltetradecylphosphonium decanoate]
A: 856.2

Q: Field request: mass density | item: CCCCCCCCCCCCCC[P+](CCCCCC)(CCCCCC)CCCCCC.N#C[N-]C#N [tetradecyl(trihexyl)phosphonium dicyanamide]
A: 876.4

Q: Field request: mass density | item: "CC(CC(C)(C)C)CP(=O)([O-])CC(C)CC(C)(C)C.CCCCCCCCCCCCCC[P+](CCCCCC)(CCCCCC)CCCCCC"
A: 861.7

Q: Field request: mass density | item: CCCCCCCCCCCCCC[P+](CCCCCC)(CCCCCC)CCCCCC.[Br-] [tetradecyltrihexylphosphonium bromide]
A: 930.7

Q: Field request: mass density | item: CCCCCCCCCCCCCC[P+](CCCCCC)(CCCCCC)CCCCCC.[Cl-] [trihexyl(tetradecyl)phosphonium chloride]
A: 866.6

Q: Field request: mass density | item: CCCCCCCCCCCCCC[P+](CCCCCC)(CCCCCC)CCCCCC.CS(=O)(=O)[O-] [trihexyltetradecylphosphonium methanesulfonate]
A: 904.1

---

A collection of compounds and their measured viscosity
study conditions: 313.15 K; 101.33 kPa; Liquid; Concentric cylinders viscometry
API: value field is a number in mPa·s; no unit string.

compound	reported metric	meas value
CC(CC(C)(C)C)CP(=O)([O-])CC(C)CC(C)(C)C.CCCCCCCCCCCCCC[P+](CCCCCC)(CCCCCC)CCCCCC	viscosity	601.35
CCCCCCCCCCCCCC[P+](CCCCCC)(CCCCCC)CCCCCC.[Cl-] [trihexyl(tetradecyl)phosphonium chloride]	viscosity	962.5
CCCCCCCCCCCCCC[P+](CCCCCC)(CCCCCC)CCCCCC.[Br-] [tetradecyltrihexylphosphonium bromide]	viscosity	1046.7
CCCCCCCCCCCCCC[P+](CCCCCC)(CCCCCC)CCCCCC.CS(=O)(=O)[O-] [trihexyltetradecylphosphonium methanesulfonate]	viscosity	498.53
CCCCCCCCCCCCCC[P+](CCCCCC)(CCCCCC)CCCCCC.N#C[N-]C#N [tetradecyl(trihexyl)phosphonium dicyanamide]	viscosity	195

Q: Field request: viscosity | item: "CCCCCCCCCCCCCC[P+](CCCCCC)(CCCCCC)CCCCCC.O=S(=O)([N-]S(=O)(=O)C(F)(F)F)C(F)(F)F"
A: 151.85

Q: Field request: viscosity | item: CCCCCCCCCC(=O)[O-].CCCCCCCCCCCCCC[P+](CCCCCC)(CCCCCC)CCCCCC [trihexyltetradecylphosphonium decanoate]
A: 207.27

---

study conditions: 308.15 K; 101.33 kPa; Liquid; Concentric cylinders viscometry
Lab note: compare viscosity with 700 mPa·s, writing 1 if less and 0 if equal or more.

Here's what some known entries look like.
compound	class name
CCCCCCCCCCCCCC[P+](CCCCCC)(CCCCCC)CCCCCC.N#C[N-]C#N [tetradecyl(trihexyl)phosphonium dicyanamide]	1
CC(CC(C)(C)C)CP(=O)([O-])CC(C)CC(C)(C)C.CCCCCCCCCCCCCC[P+](CCCCCC)(CCCCCC)CCCCCC	0
CCCCCCCCCCCCCC[P+](CCCCCC)(CCCCCC)CCCCCC.[Cl-] [trihexyl(tetradecyl)phosphonium chloride]	0
CCCCCCCCCC(=O)[O-].CCCCCCCCCCCCCC[P+](CCCCCC)(CCCCCC)CCCCCC [trihexyltetradecylphosphonium decanoate]	1
CCCCCCCCCCCCCC[P+](CCCCCC)(CCCCCC)CCCCCC.[Br-] [tetradecyltrihexylphosphonium bromide]	0

Turning to the following compound.
Q: Just wondering, is viscosity of "CCCCCCCCCCCCCC[P+](CCCCCC)(CCCCCC)CCCCCC.O=S(=O)([N-]S(=O)(=O)C(F)(F)F)C(F)(F)F" below 700 mPa·s?
A: 1

---

study conditions: 283.15 K; 101.33 kPa; Liquid; Vibrating tube method
reported metric: mass density (kg/m3)
API: value field is a number in kg/m3; no unit string.

// known answers, use as guide
compound	reported metric	u	meas value
CCCCCCCCCCCCCC[P+](CCCCCC)(CCCCCC)CCCCCC.[Cl-] [trihexyl(tetradecyl)phosphonium chloride]	mass density	kg/m3	898.6
CCCCCCCCCCCCCC[P+](CCCCCC)(CCCCCC)CCCCCC.CS(=O)(=O)[O-] [trihexyltetradecylphosphonium methanesulfonate]	mass density	kg/m3	937.4
CC(CC(C)(C)C)CP(=O)([O-])CC(C)CC(C)(C)C.CCCCCCCCCCCCCC[P+](CCCCCC)(CCCCCC)CCCCCC	mass density	kg/m3	894.3
CCCCCCCCCCCCCC[P+](CCCCCC)(CCCCCC)CCCCCC.O=S(=O)([N-]S(=O)(=O)C(F)(F)F)C(F)(F)F	mass density	kg/m3	1077.4
CCCCCCCCCCCCCC[P+](CCCCCC)(CCCCCC)CCCCCC.[Br-] [tetradecyltrihexylphosphonium bromide]	mass density	kg/m3	964.4
CCCCCCCCCC(=O)[O-].CCCCCCCCCCCCCC[P+](CCCCCC)(CCCCCC)CCCCCC [trihexyltetradecylphosphonium decanoate]	mass density	kg/m3	890

# ---- query compound ----
Q: Field request: mass density | item: CCCCCCCCCCCCCC[P+](CCCCCC)(CCCCCC)CCCCCC.N#C[N-]C#N [tetradecyl(trihexyl)phosphonium dicyanamide]
A: 907.8

---

study conditions: 303.15 K; 101.33 kPa; Liquid; Vibrating tube method
reported metric: mass density (kg/m3)
API: value field is a number in kg/m3; no unit string.

compound	mass density [kg/m3]
CCCCCCCCCCCCCC[P+](CCCCCC)(CCCCCC)CCCCCC.[Cl-] [trihexyl(tetradecyl)phosphonium chloride]	887
CCCCCCCCCCCCCC[P+](CCCCCC)(CCCCCC)CCCCCC.CS(=O)(=O)[O-] [trihexyltetradecylphosphonium methanesulfonate]	925.1
CCCCCCCCCCCCCC[P+](CCCCCC)(CCCCCC)CCCCCC.[Br-] [tetradecyltrihexylphosphonium bromide]	952.1
CC(CC(C)(C)C)CP(=O)([O-])CC(C)CC(C)(C)C.CCCCCCCCCCCCCC[P+](CCCCCC)(CCCCCC)CCCCCC	882.3
CCCCCCCCCC(=O)[O-].CCCCCCCCCCCCCC[P+](CCCCCC)(CCCCCC)CCCCCC [trihexyltetradecylphosphonium decanoate]	877.5

Q: Field request: mass density | item: CCCCCCCCCCCCCC[P+](CCCCCC)(CCCCCC)CCCCCC.N#C[N-]C#N [tetradecyl(trihexyl)phosphonium dicyanamide]
A: 896.1

Q: Field request: mass density | item: "CCCCCCCCCCCCCC[P+](CCCCCC)(CCCCCC)CCCCCC.O=S(=O)([N-]S(=O)(=O)C(F)(F)F)C(F)(F)F"
A: 1062.4
